src = ChEMBL document CHEMBL5291721

Record type: AC50 measurement. Applies to: Gastrin/cholecystokinin type B receptor (Homo sapiens, UniProt P32239)

Here are 4 compounds together with their reported answers.
1. [H]/N=C(/N)c1ccc(NCc2nc3cc(C(=O)N(CCC(=O)O)c4ccccn4)ccc3n2C)cc1 = > 30 µM
2. NS(=O)(=O)c1cc2c(cc1Cl)NCNS2(=O)=O [HYDROCHLOROTHIAZIDE] = > 30 µM
3. CN(C)CCCN1c2ccccc2Sc2ccccc21 = > 30 µM
4. CNC(=O)c1cc(Oc2ccc(NC(=O)Nc3ccc(Cl)c(C(F)(F)F)c3)cc2)ccn1 = > 10 µM

Here's the next entry for you.
Given `COc1ccc2c(c1)C(=O)N(CCc1ccc(S(=O)(=O)NC(=O)NC3CCCCC3)cc1)C(=O)C2(C)C` , state its recorded AC50.
> 10 µM
